Recorded values, source patent US10383335B2.

Can you tell me melting point for the items I'm about to list?

Dear colleague, could you send me melting point for each of the items below? Thanks.
1. c1ccc(N2CCc3nn(-c4cccnc4)cc3C2)nc1
2. O=C(NCC(F)(F)F)N1CCc2nn(-c3cccnc3)cc2C1
3. CNC(=O)N1CCc2nn(-c3cccnc3)cc2C1
4. CCNC(=O)N1CCc2nn(-c3cccnc3)cc2C1

stdout:
1. 117 to 125.1 °C
2. 118.3 to 155.3 °C
3. 212 to 224.2 °C
4. 151.1 to 170.5 °C
